Target: 19 kD truncated collagenase-1 (MMP-1) (Homo sapiens, UniProt P03956)
Construct: 19 kD truncated collagenase-1 (MMP-1)
Sequence (P03956 101-269 limits assumed): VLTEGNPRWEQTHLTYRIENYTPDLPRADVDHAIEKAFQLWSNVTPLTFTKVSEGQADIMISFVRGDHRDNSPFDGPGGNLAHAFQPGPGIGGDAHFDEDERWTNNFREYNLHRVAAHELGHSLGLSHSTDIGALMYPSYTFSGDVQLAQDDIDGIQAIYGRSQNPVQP
Method: Matrix Metalloprotease Inhibition Protocol, collagenase-1
Condition Details: fluorogenic substrate, pH 7.6; IC50 equivalent to Ki at [S]<<Km
pKi: −log10 of the molar value.
Metric Name: pKi

These solved cases illustrate the format of a correct answer.
Compound	Metric Name	Reported Measurement
C[C@@H]([C@@H](CCCc1ccccc1)C(=O)N[C@H](C(=O)Nc1cccnc1)C(C)(C)C)N(O)C=O [Example 1]	pKi	> 7.00
CC(C)(C)[C@H](NC(=O)[C@H](CCCc1ccccc1)[C@H](CCC(F)(F)F)N(O)C=O)C(=O)Nc1nccs1 [Example 183]	pKi	< 6.00
CCC[C@@H]([C@@H](CCCc1ccoc1)C(=O)N[C@H](C(=O)Nc1nccs1)C(C)(C)C)N(O)C=O [Example 5]	pKi	6.00 to 6.30
C[C@@H]([C@@H](CC1CCC(c2ccccc2)CC1)C(=O)N[C@H](C(=O)Nc1nccs1)C(C)(C)C)N(O)C=O (some centres unmarked) [Example 2]	pKi	6.00 to 6.30

Hey, quick one: what's pKi for each of these?
1. CCC[C@@H]([C@@H](CCCc1ccoc1)C(=O)N[C@@H](CCCCNC(=O)OCc1ccccc1)C(=O)Nc1nccs1)N(O)C=O [Example 4]
2. CCC[C@@H]([C@@H](CC(C)Cc1ccccc1)C(=O)N[C@H](C(=O)Nc1nccs1)C(C)(C)SCCNC(=O)OCc1ccccc1)N(O)C=O (some centres unmarked) [Example 7]
3. CCC[C@@H]([C@H](COCc1ccccc1)C(=O)N[C@@H](CCCCNC(=O)OCc1ccccc1)C(=O)Nc1nccs1)N(O)C=O [Example 6]
4. CCC[C@@H]([C@@H](CC(C)Cc1ccccc1)C(=O)N[C@@H](CCCCNC(=O)OCc1ccccc1)C(=O)Nc1nccs1)N(O)C=O (some centres unmarked) [Example 9]
5. C[C@@H]([C@@H](CCCc1ccc(Cl)cc1)C(=O)N[C@H](C(=O)Nc1cccnc1)C(C)(C)C)N(O)C=O [Example 195]
6. CCC[C@@H]([C@@H](CCCc1ccccc1)C(=O)N[C@@H](CCCCNC(=O)OCc1ccccc1)C(=O)Nc1nncs1)N(O)C=O [Example 3]

1. < 6.00
2. < 6.00
3. < 6.00
4. < 6.00
5. > 7.00
6. < 6.00

Which pKi value belongs to CCC[C@@H]([C@@H](CC(C)Cc1ccccc1)C(=O)N[C@H](C(=O)Nc1nccs1)C(C)(C)C)N(O)C=O (some centres unmarked) [Example 8] ?
< 6.00
